- target system: MDR1/P-gp (Homo sapiens, UniProt P08183)
- Sequence (P08183 whole entry): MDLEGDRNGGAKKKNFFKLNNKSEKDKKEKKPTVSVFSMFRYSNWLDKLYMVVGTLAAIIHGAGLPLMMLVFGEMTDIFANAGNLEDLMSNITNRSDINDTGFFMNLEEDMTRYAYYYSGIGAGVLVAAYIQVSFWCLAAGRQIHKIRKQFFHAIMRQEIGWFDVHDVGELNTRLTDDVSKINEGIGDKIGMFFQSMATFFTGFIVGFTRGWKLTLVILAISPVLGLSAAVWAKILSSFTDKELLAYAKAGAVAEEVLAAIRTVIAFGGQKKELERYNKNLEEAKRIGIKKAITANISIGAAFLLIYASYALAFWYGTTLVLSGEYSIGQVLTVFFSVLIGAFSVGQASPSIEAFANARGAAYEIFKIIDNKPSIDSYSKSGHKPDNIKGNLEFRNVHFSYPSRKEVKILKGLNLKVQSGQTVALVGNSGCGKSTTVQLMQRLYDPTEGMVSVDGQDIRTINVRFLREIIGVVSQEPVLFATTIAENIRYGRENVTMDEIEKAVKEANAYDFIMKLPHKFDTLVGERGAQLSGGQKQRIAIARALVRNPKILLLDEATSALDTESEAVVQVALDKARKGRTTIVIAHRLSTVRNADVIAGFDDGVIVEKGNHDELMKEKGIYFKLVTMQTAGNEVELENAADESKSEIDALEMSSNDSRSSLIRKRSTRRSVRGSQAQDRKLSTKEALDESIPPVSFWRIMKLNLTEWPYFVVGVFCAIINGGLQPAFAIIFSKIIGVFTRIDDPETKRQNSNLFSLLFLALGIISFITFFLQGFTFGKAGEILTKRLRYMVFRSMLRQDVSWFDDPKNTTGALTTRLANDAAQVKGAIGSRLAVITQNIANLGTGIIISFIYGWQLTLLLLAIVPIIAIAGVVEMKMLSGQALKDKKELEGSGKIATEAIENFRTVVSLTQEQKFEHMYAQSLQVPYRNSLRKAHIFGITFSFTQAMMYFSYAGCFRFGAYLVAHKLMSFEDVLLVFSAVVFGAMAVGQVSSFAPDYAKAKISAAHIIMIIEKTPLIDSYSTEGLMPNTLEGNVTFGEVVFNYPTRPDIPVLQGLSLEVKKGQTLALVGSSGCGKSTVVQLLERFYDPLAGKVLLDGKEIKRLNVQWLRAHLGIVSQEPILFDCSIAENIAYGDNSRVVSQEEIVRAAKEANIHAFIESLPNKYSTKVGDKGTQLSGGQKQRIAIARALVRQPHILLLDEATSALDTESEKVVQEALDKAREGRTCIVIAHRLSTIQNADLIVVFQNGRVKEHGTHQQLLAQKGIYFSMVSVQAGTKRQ
- assay name: Transporter inhibition using membrane vesicles
- condition summary: human, human MDR1 (P-gp) membrane vesicles, pH 7.4, probe N-methyl quinidine (0.2 µM), IC50, N-methyl quinidine (0.2 µM)
recorded endpoint: IC50 at […]

INSERT INTO assay_data (smiles_repr, assay_value) VALUES
  ('COc1cccc2[nH]c(C(=O)N[C@@H](CC(C)C)C(=O)N[C@@H](C[C@@H]3CCNC3=O)C(=O)CO)cc12', '> 20 µM');

###

- Test system: CYP3A4/5
- assay name: in vitro
- condition summary: human, microsomes, pH 7.4, Percent of Control Activity, CYP 3A4/5 (mdz), 43.8 µM, 30-Minute Preincubation
recorded endpoint: activity at 43.8 µM (%)

INSERT INTO results (smiles_repr, assay_value) VALUES
  ('COc1cccc2[nH]c(C(=O)N[C@@H](CC(C)C)C(=O)N[C@@H](C[C@@H]3CCNC3=O)C(=O)CO)cc12', 77.3);
